target: SOS1:KRAS (G12C) interaction (Homo sapiens (Human)); assay: SOS1-KRas(G12C) FRET Assay; details: 0.5 nM His10-SOS1 (res. 564-1049), 2.5 nM GST-KRAS (res. 1-169, G12C); read-out: SOS-KRas(G12C) FRET IC50
property-label: IC50 (nM)

Below are worked cases with known answers.
• COc1c(=O)n([C@H]2CCOC[C@H]2F)cc2c(N[C@H](C)c3cccc(C(F)F)c3F)nn(C)c(=O)c12 (single isomer, unassigned) = 1040
• Cc1c([C@@H](C)Nc2nn(CCN)c(=O)c3cc(=O)n(C4CC4)cc23)cccc1C(F)(F)F = 239
• C[C@@H](Nc1nn(C)c(=O)c2cc(=O)n(C34COC(CF)(C3)C4)cc12)c1cccc(C(F)F)c1F = 76
• C[C@@H](Nc1nn(C)c(=O)c2cc(=O)n(C3(C#N)CC3)cc12)c1cccc(C(F)F)c1F = 72.5

1 = C[C@@H](Nc1nn(C)c(=O)c2cc(=O)n(C3(C)CC(F)(F)C3)cc12)c1cccc(C(F)F)c1F
2 = Cc1c([C@@H](C)Nc2nn(C)c(=O)c3cc(=O)n([C@H]4C[C@@H]4c4cncc(F)c4)cc23)cccc1C(F)(F)F (single isomer, unassigned)
(Q) Smaller IC50 value, 1 vs 2 ? Provide the label of your selected option as the answer.
(A) 2
(2: 97.4 nM, 1: 282 nM)

----------
Target: SOS1:KRAS (G12C) interaction (Homo sapiens (Human), UniProt Q07889)
Sequence (Q07889 564-1049, stated change not applied): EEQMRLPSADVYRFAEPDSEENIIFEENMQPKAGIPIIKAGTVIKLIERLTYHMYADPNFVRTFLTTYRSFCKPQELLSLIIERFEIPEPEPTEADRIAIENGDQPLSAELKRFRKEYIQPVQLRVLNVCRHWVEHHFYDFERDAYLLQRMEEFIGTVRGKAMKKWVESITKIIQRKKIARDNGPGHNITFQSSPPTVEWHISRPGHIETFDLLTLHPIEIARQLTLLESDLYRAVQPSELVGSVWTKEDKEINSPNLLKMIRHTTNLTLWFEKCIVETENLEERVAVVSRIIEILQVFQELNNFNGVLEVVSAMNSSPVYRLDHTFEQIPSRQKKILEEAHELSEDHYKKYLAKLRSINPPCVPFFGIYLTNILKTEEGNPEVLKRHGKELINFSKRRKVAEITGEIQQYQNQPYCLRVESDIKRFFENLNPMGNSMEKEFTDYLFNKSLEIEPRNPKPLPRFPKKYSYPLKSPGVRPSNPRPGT
Experiment: SOS1-KRas(G12C) FRET Assay
Conditions: 0.5 nM His10-SOS1 (res. 564-1049), 2.5 nM GST-KRAS (res. 1-169, G12C); read-out: SOS-KRas(G12C) FRET IC50
Experimental: Inhibition of the SOS1:KRAS interaction was measured using purified GST-tagged KRAS (res. 1-169, G12C, purified based on Hillig, et al., Proc Natl Acad Sci USA (2019); 116(7):2551-2560) and recombinant His10-SOS1 (res. 564-1049; purified based on Hillig, et al.). […] Plates were incubated at RT for 2 hrs before the FRET signal was measured using Envision at emission 665 nm and 615 nm. […]
property-label: IC50 (nM)

// below: answered compounds
* COc1c(=O)n(C2(C(F)F)CC2)cc2c(N[C@H](C)c3cccc(C(F)F)c3F)nn(C)c(=O)c12 | 60.8
* C[C@H](Nc1nn(C)c(=O)c2cc(=O)n([C@H]3C[C@@H](C#N)C3)cc12)c1cccc(C(F)F)c1F | 127
* COCC(F)(F)c1cccc([C@@H](C)Nc2nn(C)c(=O)c3cc(=O)n(C4(C(F)F)CC4)cc23)c1F | 24.9
* C[C@@H](Nc1nn(C)c(=O)c2cc(=O)n(C3CC3)cc12)c1cc(Br)cs1 | 1930

P = C[C@@H](Nc1nn(C)c(=O)c2cc(=O)n([C@H]3CCOC(C)(C)C3)cc12)c1cccc(C(F)F)c1F (single isomer, unassigned)
Q = Cc1c([C@@H](C)Nc2nn(C)c(=O)c3cc(=O)n(C4(C)CC4)cc23)cccc1C(F)(F)F
(Q) For P and Q , which recorded IC50 is lower? Mark your answer with the label of the selected entry.
(A) P
